Can you tell me EC50 for the items I'm about to list?
# Tested on: HCV genotype 1b (Con1) replicon in HUH-7 cells
# MEASUREMENT DESCRIPTION: HCV replicon luciferase reporter assay, genotype 1b
# Type: cell-based
# EXPERIMENTAL CONTEXT: Hepatitis C virus, Huh-7, 72 h, HCV genotype 1b replicon luciferase, 3 days incubation, read-out: LE_1b (EC50, range)

What value of EC50 has been recorded for this entry: `CC[C@@H]1C[C@H](C)CC/C=C\[C@@H]2C[C@@]2(C(=O)NS(=O)(=O)C2(C)CC2)NC(=O)[C@@H]2C[C@@H](Oc3nc4c(c5cc(OC)ccc35)CCCO4)CN2C(=O)[C@H]1NC(=O)OC(C)(C)C(C)(F)F`
0.51 to 1 nM

What value of EC50 has been recorded for this entry: `COc1ccc2c(O[C@@H]3C[C@H]4C(=O)N[C@]5(C(=O)NS(=O)(=O)C6(C)CC6)C[C@H]5/C=C\CC[C@@H](C)C[C@@H](C)[C@H](NC(=O)c5ccc(N(C)C)cc5)C(=O)N4C3)nccc2c1`
< 5.46 nM
